# System: NCI-H522
# ASSAY EXPLANATION: Cytotoxicity against human NCI-H522 cells assessed as cell growth at 10 uM
# Assay type: functional
# RUN CONDITIONS: Homo sapiens, NCI-H522; read-out: Activity
ATTRIBUTE MEASURED: growth at 10 µM (%)

• CC(=O)Nc1cccc(-c2ccc(-c3ccnc(NC(=O)Nc4cc(C(F)(F)F)cc(C(F)(F)F)c4)n3)cn2)c1.Cl = 8.5
• CC(=O)c1ccccc1-c1ccc(-c2ccnc(NC(=O)Nc3cc(N4CCOCC4)cc(C(F)(F)F)c3)n2)cn1 = 60.2
• c1ccc(-c2ccc(-c3ccnc(Nc4ccc(N(c5ccccc5)c5ccccc5)cc4)n3)cn2)cc1 = 94
• O=C(Nc1cc(C(F)(F)F)cc(C(F)(F)F)c1)Nc1nccc(-c2ccc(Nc3ccccc3)nc2)n1 = 94.3
• CC(=O)c1ccc(-c2ccc(-c3ccnc(Nc4cc(C(F)(F)F)cc(C(F)(F)F)c4)n3)cn2)cc1 = 102
• FC(F)(F)c1cc(Nc2nccc(-c3cccnc3)n2)cc(C(F)(F)F)c1 = 86.5

Each recorded value in this set is attributed to ChEMBL document CHEMBL1165943.
